assayed-system: T1, GPC3 on HepG2 cells (human, UniProt P51654 25-554)
T1 construct: whole, on cells; also called glypican-3
test-summary: FACS on HepG2 cells
The following binders are listed with their measured EC50 values.

binder	EC50, nM
hAb007LH1L1d (antibody, human IgG1, V domains shown, Humanized F3.81.19, H1+L1d) VH: EVQLVQSGAEVKKPGSSVKVSCKASGYTFSDYEMHWVRQAPGQGLEWMGTIDPETGNTAYNQKFKGRVTITADKSTSTAYMELSSLRSEDTAVYYCTRPYSLTYWGQGTLVTVSS VL: DIVMTQTPLSLPVTPGEPASISCRSSQSFVHSNSDTYLQWYLQKPGQSPQLLIYKVSNRFSGVPDRFSGSGSGTDFTLKISRVEAEDVGVYYCFQGSHVPYTFGQGTKLEIK	4.39
hAb005LH1L1b (antibody, human IgG1, V domains shown, Humanized F3.54.12, H1+L1b) VH: EVQLVQSGAEVKKPGASVKVSCKASGYTFTDYEMHWVRQAPGQGLEWMGAIDPETGNTAYIQKFKGRVTMTTDKSTSTAYMELRSLRSDDTAVYYCTRFYSYSHWGQGTTVTVSS VL: DIVMTQTPLSLPVTPGEPASISCRSSQSLVHSNRNTYLHWYLQKPGQSPQLLIYKVSNRFSGVPDRFSGSGSGTDFTLKISRVEAEDVGVYYCSQNTHVPPTFGGGTKVEIK	1.01
hAb007LH1L1c (antibody, human IgG1, V domains shown, Humanized F3.81.19, H1+L1c) VH: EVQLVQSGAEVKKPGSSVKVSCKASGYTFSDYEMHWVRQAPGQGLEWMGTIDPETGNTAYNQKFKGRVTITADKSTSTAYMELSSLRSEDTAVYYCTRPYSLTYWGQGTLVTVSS VL: DIVMTQTPLSLPVTPGEPASISCRSSQSFVHSNADTYLQWYLQKPGQSPQLLIYKVSNRFSGVPDRFSGSGSGTDFTLKISRVEAEDVGVYYCFQGSHVPYTFGQGTKLEIK	3.67
